System: SEM cells
Experiment: AUC of viability dose-response curve (% viability x log10 dose units); higher = less sensitive
Details: RPMI 5 mM glucose + 10% FBS; 48 h
As shown below, each of these compounds has a reported AUC of viability dose-response curve value.
Write the number on its own, no unit after it.

The cases that follow already have their AUC of viability dose-response curve on record.
CC(=O)SCC(Cc1ccccc1)C(=O)NCC(=O)OCc1ccccc1 (stereo unspecified); 443
NC/1=N/C(=O)N(/C=C1)[C@H]2CC[C@@H](CO)O2; 415
c1ccc2c(-c3cnn4cc(-c5ccc(N6CCNCC6)cc5)cnc34)ccnc2c1; 379
COc1ccc2cc(-c3[nH]c(-c4ccc([S+](C)[O-])cc4)nc3-c3ccncc3)ccc2c1 (stereo unspecified); 463
CN(C)c1nc(N(C)C)nc(N(C)C)n1; 453
NC\1=N\C(=O)N(\C=N1)[C@H]2C[C@H](O)[C@@H](CO)O2; 327
COc1ccc([C@@H]2CNC(=O)C2)cc1OC1CCCC1; 458
CN1CCN(c2cccc(Nc3nc4c(-c5ccc([S+](C)(=O)[O-])cc5)cccn4n3)c2)CC1; 375

Can you look up the measured AUC of viability dose-response curve of CN(C)[C@H]\1[C@@H]2[C@@H](O)[C@@H]\3C(=C)C4=C(C(=CC=C4)O)C(=O)C3=C(\O)[C@@]2(O)C(=O)\C(=C1O)C(N)=O for me? 463

Can you look up the measured AUC of viability dose-response curve of c1ccc(-c2nn3c(c2-c2ccnc4cc(OCCN5CCOCC5)ccc24)CCC3)nc1 for me? 468

---

System: NOMO1
Assay: cell viability relative to DMSO control; higher = less cytotoxic
Conditions: HPLM + 10% dialyzed FBS; 48 h; 0.19 µM
As shown below, each of these molecules has a reported cell viability value.
Value expressed in %; do not type the unit.

The cases that follow already have their cell viability on record.
C=C1C[C@@]2(O)O[C@@]3(C[C@H]2C(C)C)[C@@H](C)CC[C@@H]13; 134
CN1C(=O)COc2c(C(=O)NC3CN4CCC3CC4)cc(Cl)cc21 (centres undefined); 104
COc1ccc2cccc(CCNC(C)=O)c2c1; 87.9

Now examine the next entry.
Look up cell viability with NOMO1 for this molecule: COc1cc2c(NC3CCN(C(C)C)CC3)nc(C3CCCCC3)nc2cc1OCCCN1CCCC1 128

---

Test system: NOMO1
Assay: AUC of viability dose-response curve (% viability x log10 dose units); higher = less sensitive
Conditions: HPLM + 10% dialyzed FBS; 48 h
MEASUREMENT KIND: AUC of viability dose-response curve
Write the number on its own, no unit after it.

CCCCc1oc2ccc(NS(C)(=O)=O)cc2c1C(=O)c1ccc(OCCCN(CCCC)CCCC)cc1; 367
Cc1cc(SCc2sc(-c3ccc(C(F)(F)F)c(F)c3)nc2C)ccc1OCC(=O)O; 458
CNC(=O)c1c(F)cccc1Nc1nc(Nc2cc3c(cc2OC)CCN3C(=O)CN(C)C)nc2[nH]ccc12; 384
C=C1C[C@@]2(O)O[C@@]3(C[C@H]2C(C)C)[C@@H](C)CC[C@@H]13; 466
CC(C)(Cc1ccc2ccccc2c1)NC[C@@H](O)COc1cccc(Cl)c1C#N; 458

Can you look up the measured AUC of viability dose-response curve of O=C(NCc1ccccc1)[C@H](Cc1ccccc1)NC(=O)[C@H]1O[C@@H]1C(=O)NCCc1ccc(O)cc1 for me? 431

Can you look up the measured AUC of viability dose-response curve of CN(C)c1nc(N(C)C)nc(N(C)C)n1 for me? 440

Can you look up the measured AUC of viability dose-response curve of COc1ccc2cccc(CCNC(C)=O)c2c1 for me? 434

Can you look up the measured AUC of viability dose-response curve of Cc1cnc(Nc2ccc(OCCN3CCCC3)cc2)nc1Nc1cccc([S+](=O)([O-])NC(C)(C)C)c1 for me? 477

---

Tested on: P12-Ichikawa
Experiment: AUC of viability dose-response curve (% viability x log10 dose units); higher = less sensitive
Conditions: RPMI 5 mM glucose + 10% dialyzed FBS; 48 h
As shown below, each of these compounds has a reported AUC of viability dose-response curve value.
Write the number on its own, no unit after it.

CN(C)c1ccc(C(=O)NCCCCCCC(=O)NO)cc1; 317
N=C(N)c1ccc(OCCCCCOc2ccc(C(=N)N)cc2)cc1; 458
C[C@H]1[C@@H](CC(C[C@H]2O[C@@H]3O[C@]4(C)CC[C@H]5[C@H](C)CC[C@@H]([C@H]2C)[C@@]35OO4)C[S+](=O)([O-])c2ccc(COC(=O)N(C)C)cc2)O[C@@H]2O[C@]3(C)CC[C@H]4[C@H](C)CC[C@@H]1[C@@]24OO3; 341
COc1ccc(-c2nc3cc(C4=NNC(=O)CC4C)ccc3[nH]2)cc1 (stereo not drawn); 470
Nc1cccc(-c2cc3c(Oc4cccc(O)c4)ncnc3[nH]2)c1; 436

Look up AUC of viability dose-response curve with P12-Ichikawa for this compound: CCN1CCN(Cc2ccc(-c3cc4c(N[C@H](C)c5ccccc5)ncnc4[nH]3)cc2)CC1 461

Look up AUC of viability dose-response curve with P12-Ichikawa for this compound: CCCn1c(=O)c2[nH]c(-c3cnn(Cc4cccc(C(F)(F)F)c4)c3)nc2n(CC)c1=O 438

Look up AUC of viability dose-response curve with P12-Ichikawa for this compound: COC(=O)C/1=C/O[C@@H](O)[C@H]\2[C@@H]1C\C=C2CO 466

---

As shown below, each of these compounds has a reported cell viability value.
Test system: SEM cells
Experiment: cell viability relative to DMSO control; higher = less cytotoxic
Settings: RPMI 5 mM glucose + 10% dialyzed FBS; 48 h; 5.12 µM
Value expressed in %; do not type the unit.

CCOP(=O)(OCC)C(C)NC(=O)N(CCCl)N=O (stereo not given); 107

Can you look up the measured cell viability of CC1=C(/C=C/C(C)=C/C=C/C(C)=C/C(=O)Nc2ccc(O)cc2)C(C)(C)CCC1 for me? 20

Can you look up the measured cell viability of Cc1cnc(Nc2ccc(OCCN3CCCC3)cc2)nc1Nc1cccc([S+](=O)([O-])NC(C)(C)C)c1 for me? 82.4

Can you look up the measured cell viability of Cn1c(=O)c2c(ncn2CC(O)CO)n(C)c1=O (stereo not given) for me? 135

Can you look up the measured cell viability of COc1cc2ncnc(Nc3ccc(F)c(Cl)c3)c2cc1OCCCN1CCOCC1 for me? 78.1

---

System: P12-Ichikawa
Test: cell viability relative to DMSO control; higher = less cytotoxic
Settings: RPMI 5 mM glucose + 10% FBS; 48 h; 0.00234 µM
MEASUREMENT KIND: cell viability
Write the figure, then the unit, nothing else.

The cases that follow already have their cell viability on record.
O=P(O)(O)C(O)(Cc1cccnc1)P(=O)(O)[O][Na] (centres undefined); 98.6%
O=C1[O][Pt]2([NH]C3CCCCC3[NH]2)[O]C1=O (centres undefined); 109%
Cc1ccc(F)c(NC(=O)Nc2ccc(-c3cccc4[nH]nc(N)c34)cc2)c1; 113%
C=C1C[C@@]2(O)O[C@@]3(C[C@H]2C(C)C)[C@@H](C)CC[C@@H]13; 127%
CC(=O)SCC(Cc1ccccc1)C(=O)NCC(=O)OCc1ccccc1 (centres undefined); 93.6%
COC(=O)N[C@H](C(=O)N[C@@H](Cc1ccccc1)[C@@H](O)CN(Cc1ccc(-c2ccccn2)cc1)NC(=O)[C@@H](NC(=O)OC)C(C)(C)C)C(C)(C)C; 117%

Can you look up the measured cell viability of CN(C)c1ccc(C(=O)NCCCCCCC(=O)NO)cc1 for me? 104%

Can you look up the measured cell viability of C[C@@H]1CN(CC(=O)N2CC(C)(C)c3ncc(Cc4ccc(F)cc4)cc32)[C@@H](CN2CCOC[C@H]2C)CN1 for me? 106%

Can you look up the measured cell viability of CN1[C@@H]2CC(O)C[C@H]1[C@@H]1O[C@@H]12 (some centres undefined) for me? 113%

---

Tested on: SEM cells
Assay: cell viability relative to DMSO control; higher = less cytotoxic
Conditions: RPMI 5 mM glucose + 10% dialyzed FBS; 48 h; 1.71 µM
As shown below, each of these molecules has a reported cell viability value.
Value expressed in %; do not type the unit.

The cases that follow already have their cell viability on record.
O=P(O)(O)C(O)(Cc1cccnc1)P(=O)(O)[O][Na] (configuration not stated); 102
CN(C)c1ccc(C(=O)NCCCCCCC(=O)NO)cc1; 31.4
Cn1cc(-c2ccncc2)c(-c2ccc(OCc3ccc4ccccc4n3)cc2)n1; 110
C[C@H]1[C@@H](CC(C[C@H]2O[C@@H]3O[C@]4(C)CC[C@H]5[C@H](C)CC[C@@H]([C@H]2C)[C@@]35OO4)C[S+](=O)([O-])c2ccc(COC(=O)N(C)C)cc2)O[C@@H]2O[C@]3(C)CC[C@H]4[C@H](C)CC[C@@H]1[C@@]24OO3; 6.28
CC(=O)SCC(Cc1ccccc1)C(=O)NCC(=O)OCc1ccccc1 (configuration not stated); 114
Cc1ccc(F)c(NC(=O)Nc2ccc(-c3cccc4[nH]nc(N)c34)cc2)c1; 61.7
O=C(Oc1ccc([N+](=O)[O-])cc1)N1CCN(Cc2cccc(Oc3ccccc3)c2)CC1; 108
CC(C)c1ccc2oc3nc(N)c(C(=O)O)cc3c(=O)c2c1; 127
Cc1nc2c([nH]1)-c1ccccc1N(C(=O)c1ccc(NC(=O)c3ccccc3-c3ccccc3)cc1)CC2; 121
Nc1cccc(-c2cc3c(Oc4cccc(O)c4)ncnc3[nH]2)c1; 121

Can you look up the measured cell viability of CCN(CC)CCOC1=CC=C(NC2=NC=C3\C=C(/C(=O)N(C)C3=N2)C4=C(Cl)C=CC=C4Cl)C=C1 for me? 59.8

Can you look up the measured cell viability of CCOc1cc2c(c(F)c1OCC)C(=N)N(CC(=O)c1cc(N3CCOCC3)c(OC)c(C(C)(C)C)c1)C2 for me? 124
